System: CP211
PROTOCOL_NOTES: qHTS profiling for inhibitors of Plasmodium falciparum proliferation (AID 504749); further: nearly all actives have a fitted effect of over 60% in size
EXPERIMENTAL_CONDITIONS: P. falciparum in erythrocytes, SYBR Green DNA, 72 h; series mostly up to 28.7 µM
Inconclusive results are not listed. Active and inactive are the calls of the source. The call rests on the fitted dose curve; in most records, active means well fitted inhibition curve with a large enough effect; inconclusive means small, poorly fitted or top-dose-only effect; inactive means flat fitted curve, though single readings scatter.
Respond only with the outcome that fits, drawn from Y (active), N (inactive)

Reference set, count: 6
CC(=O)[C@]1(O)Cc2c(O)c3c(c(O)c2[C@@H](O[C@H]2C[C@H](N)[C@H](O)[C@H](C)O2)C1)C(=O)c1ccccc1C3=O : Y
CN1CCN(CC(=O)N2c3ccccc3C(=O)Nc3cccnc32)CC1 : N
Cc1cc(C)c(/C=C2\C(=O)Nc3ccccc32)[nH]1 : N
CN=C(NC#N)NCCSCc1nc[nH]c1C : N
O=C(O)CCCCCCCC(=O)O : N
NS(=O)(=O)c1cc2c(cc1Cl)NC(C1CC3C=CC1C3)NS2(=O)=O (stereo unspecified) : N

Problem: Answer briefly: the call reported for COC(=O)C1=C(C)NC(C)=C(C(=O)OC(C)(C)CN(C)CCC(c2ccccc2)c2ccccc2)C1c1cccc([N+](=O)[O-])c1 (stereo unspecified) in this assay.
Result: Y

Problem: Field entry: CCN(CC)CCNC(=O)c1ccc(NC(C)=O)cc1
Result: N

Problem: Same read-out for CNC1(C)C2CCC(C2)C1(C)C (stereo unspecified) ?
Result: N

Problem: Now give it for O=C(O)CN(CCOCCOCCN(CC(=O)O)CC(=O)O)CC(=O)O too.
Result: N

Problem: Also check OCCN1CCN(CC/C=C2/c3ccccc3Sc3ccc(C(F)(F)F)cc32)CC1
Result: Y

---

TESTED_ON: Single-stranded DNA cytosine deaminase (Homo sapiens) (UniProt Q9GZX7)
Sequence (Q9GZX7 whole entry, looked up): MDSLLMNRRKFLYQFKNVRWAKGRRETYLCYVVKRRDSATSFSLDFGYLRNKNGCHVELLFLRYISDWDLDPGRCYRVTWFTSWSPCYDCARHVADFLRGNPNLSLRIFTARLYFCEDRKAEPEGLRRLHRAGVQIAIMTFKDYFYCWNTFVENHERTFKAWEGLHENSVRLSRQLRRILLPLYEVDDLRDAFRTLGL
PROTOCOL_NOTES: Validation qHTS assay for inhibitors of Activation Induced Cytidine Deaminase (AID): AID signal (AID 1347429)
EXPERIMENTAL_CONDITIONS: Recombinant AID, FRET ssDNA deamination with UDG, fluorescence; series mostly up to 115 µM
Activity calls are given as the source filed them. Calls come from the whole dose curve; as a rule, active = well fitted inhibition curve with a large enough effect; inconclusive = small, poorly fitted or top-dose-only effect; inactive = no such curve, though single readings can be large or run the other way.
Hi there, use one of these labels in your reply, thanks! T = active, F = inactive

NCCCNCCSP(=O)(O)O : F

Problem: Tell me the recorded outcome of this test for C=CCc1ccccc1OCC(O)CNC(C)C (stereo not given) .
Result: F

Problem: # repeat for CN(C)CC[C@@H](c1ccc(Br)cc1)c1ccccn1
Result: F

---

System: CP250
PROTOCOL_NOTES: qHTS profiling for inhibitors of Plasmodium falciparum proliferation (AID 504749); further: nearly all actives have a fitted effect of over 60% in size; further: potency means the concentration at half of the fitted maximal effect
EXPERIMENTAL_CONDITIONS: P. falciparum in erythrocytes, SYBR Green DNA, 72 h; series mostly up to 28.7 µM
Records with an inconclusive call do not appear. Calls of active or inactive are those of the source. Calls come from the whole dose curve; as a rule, active = well fitted inhibition curve with a large enough effect; inconclusive = small, poorly fitted or top-dose-only effect; inactive = flat fitted curve, though single readings scatter.
QUANTITY_MEASURED: Potency

For orientation, consider the following solved cases.
O=C(O)CN(CCN(CC(=O)O)CC(=O)O)CCN(CC(=O)O)CC(=O)O : inactive
CCn1ccnc1CC1COc2ccccc2O1 (configuration not stated) : inactive
C[n+]1cc2c3c(ccc2c2ccc4cc5c(cc4c21)OCO5)OCO3 : inactive
C=CCc1ccccc1OCC(O)CNC(C)C (configuration not stated) : inactive
CCCN1C[C@H](CSC)C[C@@H]2c3cccc4[nH]cc(c34)C[C@H]21 : inactive

The following molecules each have a reported value; give each one's Potency.
1. CCN(CC)CCNC(=O)c1cc(S(C)(=O)=O)ccc1OC
2. CCN(Cc1ccncc1)C(=O)C(CO)c1ccccc1 (configuration not stated)
3. CCn1cc(C(=O)O)c(=O)c2cc3c(cc21)OCO3

Result:
1. inactive
2. inactive
3. inactive
